conditions_used: female, CD1, mouse, pH 7.4
property_name: scaled Clpre

Task: Query (compound): `CC1(COc2cc(N3CCOCC3)sc2C(N)=O)COC1` ; field requested: scaled Clpre
Result: 56 mL/min/kg

Task: Fill in: scaled Clpre of NC(=O)c1cc(N2CCOCC2)ccc1OCCc1ccccc1 [Compound 55, 5-Morpholino-2-(2-phenylethoxy)benzamide] is ___
Result: 68 mL/min/kg

Task: I am curious: what scaled Clpre value has been reported for `NC(=O)c1sc(N2CCOCC2)cc1OCCc1ccccc1` ?
Result: 81 mL/min/kg

Task: Returns the measured scaled Clpre for the input compound. Input: `NC(=O)c1sc(N2CCOCC2)cc1OCCc1ccc(OC(F)(F)F)cc1`
Result: 76 mL/min/kg

Source listed as paper PMC6089501.
